# measured_on: UniProt:Q16740
# Sequence (Q16740 58-277): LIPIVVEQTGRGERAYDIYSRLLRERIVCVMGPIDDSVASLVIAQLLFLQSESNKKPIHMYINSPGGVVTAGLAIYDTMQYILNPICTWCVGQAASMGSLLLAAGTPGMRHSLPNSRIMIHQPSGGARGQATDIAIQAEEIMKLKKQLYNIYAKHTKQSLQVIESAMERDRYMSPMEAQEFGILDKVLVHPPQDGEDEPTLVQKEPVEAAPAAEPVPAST
assay_readout: pIC50
Field pIC50 (float): negative decimal logarithm of the concentration in molar.

Item: COc1cc2c(Oc3ccc4[nH]c(C)cc4c3F)ncnc2cc1OCCCN1CCCC1 | System: UniProt:Q16740 | pIC50: 4.44

----------
assay_readout: IC50

Item: COc1cc2c(Oc3ccc4[nH]c(C)cc4c3F)ncnc2cc1OCCCN1CCCC1 | System: UniProtKB P0A6G7 | IC50: > 100 µM
